# assay_method_text: Filterability evaluation: time period required for filtration through a membrane filter
# Assay type: physicochemical
# condition_parameters: pH 3; L-arginine 5g/dl, 30°C, 1.4 ℓ, 2 x 10⁵ Pa, Millipore 0.22 µmGS membrane filter
The entries below come with measured Filtration period of aqueous solution values attached.
Number only, in s; omit the unit.

N=C(N)NCCC[C@H](N)C(=O)O [Solution of purified crystals by LR-O method] [L-arginine]    914

Note: attention shifts to another entry.
Please fill in: Filtration period of aqueous solution reported for N=C(N)NCCC[C@H](N)C(=O)O [LR-O method, L-arginine] = 920

---

# assay_method_text: Filterability evaluation: time period required for filtration through a membrane filter
# Assay type: physicochemical
# condition_parameters: pH 5; L-arginine 5g/dl, 30°C, 1.4 ℓ, 2 x 10⁵ Pa, Millipore 0.22 µmGS membrane filter
Here, each record is paired with measured Filtration period of aqueous solution data.
Give just the number in s; leave the unit off.

Use the examples below as a reference point.
N=C(N)NCCC[C@H](N)C(=O)O [Solution of purified crystals by LR-O method] [L-arginine]    920
N=C(N)NCCC[C@H](N)C(=O)O [LR-O method, L-arginine]    880
N=C(N)NCCC[C@H](N)C(=O)O [UF method, L-arginine]    2640

From here, focus on the item given below.
compound N=C(N)NCCC[C@H](N)C(=O)O [Conventional method, L-arginine] , Filtration period of aqueous solution observed: 8000

---

# assay_method_text: Filterability evaluation: time period required for filtration through a membrane filter
# Assay type: physicochemical
# condition_parameters: pH 7; L-arginine 5g/dl, 30°C, 1.4 ℓ, 2 x 10⁵ Pa, Millipore 0.22 µmGS membrane filter
assay_metric: Filtration period of aqueous solution (s)
Please give a number only; it is taken to be in s.

Solved entries:
N=C(N)NCCC[C@H](N)C(=O)O [UF method, L-arginine]    1400
N=C(N)NCCC[C@H](N)C(=O)O [Solution of purified crystals by LR-O method] [L-arginine]    918

Filtration period of aqueous solution for N=C(N)NCCC[C@H](N)C(=O)O [LR-O method, L-arginine] is 910

Record N=C(N)NCCC[C@H](N)C(=O)O [Conventional method, L-arginine] , field Filtration period of aqueous solution: 1510
